Biological target: Voltage-gated inwardly rectifying potassium channel KCNH2 (Homo sapiens) (UniProt Q12809)
Sequence (Q12809 whole entry, looked up): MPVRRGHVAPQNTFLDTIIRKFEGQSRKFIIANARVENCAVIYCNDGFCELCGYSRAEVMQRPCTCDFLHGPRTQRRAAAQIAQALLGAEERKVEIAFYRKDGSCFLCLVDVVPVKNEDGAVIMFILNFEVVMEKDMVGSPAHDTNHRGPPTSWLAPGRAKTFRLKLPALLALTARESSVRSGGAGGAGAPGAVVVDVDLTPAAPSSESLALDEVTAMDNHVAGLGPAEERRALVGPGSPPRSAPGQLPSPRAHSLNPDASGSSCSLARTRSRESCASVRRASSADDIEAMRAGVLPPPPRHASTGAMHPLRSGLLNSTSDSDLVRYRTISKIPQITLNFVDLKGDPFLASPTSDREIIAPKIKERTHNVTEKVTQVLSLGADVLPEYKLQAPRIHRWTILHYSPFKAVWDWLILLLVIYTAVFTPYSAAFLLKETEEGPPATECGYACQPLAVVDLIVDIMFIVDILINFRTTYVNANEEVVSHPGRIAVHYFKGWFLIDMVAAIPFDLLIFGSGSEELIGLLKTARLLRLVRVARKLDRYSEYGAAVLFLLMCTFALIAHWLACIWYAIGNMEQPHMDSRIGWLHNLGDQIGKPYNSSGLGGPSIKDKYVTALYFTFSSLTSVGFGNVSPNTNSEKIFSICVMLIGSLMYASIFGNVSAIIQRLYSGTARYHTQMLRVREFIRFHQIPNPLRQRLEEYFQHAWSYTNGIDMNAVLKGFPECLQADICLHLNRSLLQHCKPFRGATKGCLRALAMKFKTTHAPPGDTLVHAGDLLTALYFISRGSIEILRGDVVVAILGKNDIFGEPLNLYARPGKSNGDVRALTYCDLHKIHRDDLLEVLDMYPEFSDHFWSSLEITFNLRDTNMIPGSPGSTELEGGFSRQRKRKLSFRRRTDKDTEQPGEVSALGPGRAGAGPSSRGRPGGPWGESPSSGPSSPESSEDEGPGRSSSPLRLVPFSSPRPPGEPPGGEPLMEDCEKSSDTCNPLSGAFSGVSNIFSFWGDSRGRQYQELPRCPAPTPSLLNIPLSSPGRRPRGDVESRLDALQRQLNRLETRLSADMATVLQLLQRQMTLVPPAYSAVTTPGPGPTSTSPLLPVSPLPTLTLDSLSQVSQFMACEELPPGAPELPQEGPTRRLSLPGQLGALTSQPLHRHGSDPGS
Test: Human Ether-a-go-go-Related Gene (hERG) channel small molecule antagonists: fluorescence cell-based qHTS assay (AID 1671200); note: nearly all actives have a fitted effect of over 50% in size
Details: hERG-U2OS cells, FluxOR thallium flux fluorescence; series mostly up to 76.8 µM
Inconclusive results are not listed. The source made the active and inactive calls. Calls come from the whole dose curve; as a rule, active = well fitted inhibition curve with a large enough effect in the repeat runs; inconclusive = weak or mixed curves; inactive = flat fitted curve, though single readings scatter.
In this exercise, the only acceptable responses are yes = active, no = inactive

// known answers, use as guide
Molecule: O=C(O)CCC(=O)C(=O)O
Study target: Voltage-gated inwardly rectifying potassium channel KCNH2 (Homo sapiens) (UniProt Q12809)
Assigned category: no
--
Molecule: c1ccc2sc(SN(C3CCCCC3)C3CCCCC3)nc2c1
Study target: Voltage-gated inwardly rectifying potassium channel KCNH2 (Homo sapiens) (UniProt Q12809)
Assigned category: no
--
Molecule: CCC(=O)C1CC(C(C)C)CC=C1C (configuration not stated)
Study target: Voltage-gated inwardly rectifying potassium channel KCNH2 (Homo sapiens) (UniProt Q12809)
Assigned category: no
--
Molecule: Nc1ccc(N=Nc2ccccc2)c(N)c1
Study target: Voltage-gated inwardly rectifying potassium channel KCNH2 (Homo sapiens) (UniProt Q12809)
Assigned category: yes
--
Molecule: COc1ncnc(NS(=O)(=O)c2ccc(N)cc2)c1OC
Study target: Voltage-gated inwardly rectifying potassium channel KCNH2 (Homo sapiens) (UniProt Q12809)
Assigned category: no
--
Molecule: Clc1cc(Cl)nc(Cl)n1
Study target: Voltage-gated inwardly rectifying potassium channel KCNH2 (Homo sapiens) (UniProt Q12809)
Assigned category: no
--
Molecule: CCc1ccccc1
Study target: Voltage-gated inwardly rectifying potassium channel KCNH2 (Homo sapiens) (UniProt Q12809)
Assigned category: no
--
Molecule: CN1CCCC(CC2c3ccccc3Sc3ccccc32)C1 (configuration not stated)
Study target: Voltage-gated inwardly rectifying potassium channel KCNH2 (Homo sapiens) (UniProt Q12809)
Assigned category: yes

API: the following record is the query input.
Status in this test for CC(=O)Nc1cc(S(=O)(=O)O)cc2cc(S(=O)(=O)O)c(N=Nc3ccccc3)c(O)c12 ?
no

###

Test: qHTS assay to identify small molecule agonists of the constitutive androstane receptor (CAR) signaling pathway - cell viability counter screen (AID 1224836); note: nearly all actives have a fitted effect of over 45% in size; note: potency is the fitted concentration of half-maximal effect
Details: HepG2-CYP2B6-hCAR viability, CellTiter-Fluor, 23 h, PK11195 added to every well; series mostly up to 92.4 µM
Records with an inconclusive call do not appear. The source made the active and inactive calls. Calls come from the whole dose curve; as a rule, active = well fitted cell-killing curve with a large enough effect in the repeat runs; inconclusive = weak or mixed curves, or effect the other way; inactive = flat fitted curve, though single readings scatter.
Measured quantity: Potency

Compound: O=C(O)CCC(=O)C(=O)O
Potency: inactive

Compound: C[C@]12CC[C@@H]3c4ccc(O)cc4CC[C@H]3[C@@H]1CC[C@@H]2OC(=O)CCC1CCCC1
Potency: inactive

Compound: COc1ccccc1N1CCN(CCCCNC(=O)c2ccc(-c3ccc(C(C)=O)cc3)cc2)CC1
Potency: inactive

Compound: C[C@@H]1CC(=O)NN=C1c1ccc(NN=C(C#N)C#N)cc1
Potency: 11.9 µM (active)

Compound: CCC1(CO)COCOC1
Potency: inactive

Moving on to the next compound.
Which measured Potency value corresponds to C=C(C)C(=O)OCCCCCCCCCCCCC ?
inactive

###

Target: Nuclear receptor subfamily 1 group I member 3 (Homo sapiens) (UniProt Q14994)
Sequence (Q14994 whole entry, looked up): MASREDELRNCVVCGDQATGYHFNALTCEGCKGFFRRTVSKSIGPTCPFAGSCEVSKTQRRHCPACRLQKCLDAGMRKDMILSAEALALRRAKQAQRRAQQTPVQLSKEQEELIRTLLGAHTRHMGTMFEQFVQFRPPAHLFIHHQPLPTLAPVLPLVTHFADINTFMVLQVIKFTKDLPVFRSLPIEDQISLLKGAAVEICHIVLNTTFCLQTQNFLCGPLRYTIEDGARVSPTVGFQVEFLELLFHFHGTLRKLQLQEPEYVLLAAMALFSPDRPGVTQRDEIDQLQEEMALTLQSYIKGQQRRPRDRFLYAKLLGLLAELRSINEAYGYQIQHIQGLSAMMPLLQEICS
Test: qHTS assay to identify small molecule antagonists of the constitutive androstane receptor (CAR) signaling pathway (AID 1224838);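 note: HepG2 cells stably expressing hCAR with CYP2B6 luciferase reporter stimulated by CITCO; nearly all actives have a fitted effect of over 40% in size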
Settings: HepG2-CYP2B6-hCAR luciferase, CITCO-stimulated, 24 h; series mostly up to 92.4 µM
Records with an inconclusive call do not appear. Active and inactive are the calls of the source. Calls come from the whole dose curve; as a rule, active = well fitted inhibition curve with a large enough effect in the repeat runs; inconclusive = weak or mixed curves, or effect the other way; inactive = no such curve, though single readings can be large or run the other way.
Answer with one of the outcomes Y = active, N = inactive

Some solved entries appear below for comparison.
Compound: CC(C)C(O)(c1ccc(OC(F)(F)F)cc1)c1cncnc1 (stereo not given)
Assigned category: N
--
Compound: CC1(C)[C@@H](OC(=O)CCC(=O)O)CC[C@]2(C)[C@H]3C(=O)C=C4[C@@H]5C[C@@](C)(C(=O)O)CC[C@]5(C)CC[C@@]4(C)[C@]3(C)CC[C@@H]12
Assigned category: N
--
Compound: CC(C)=CCC1C(=O)N(c2ccccc2)N(c2ccccc2)C1=O
Assigned category: N
--
Compound: C1COC1
Assigned category: N
--
Compound: C[C@@H](CN(C)C)CN1c2ccccc2Sc2ccccc21
Assigned category: N
--
Compound: CCOC(=O)c1ccc(OCCN2C[C@H](O)[C@@H](O)[C@H](O)[C@H]2CO)cc1
Assigned category: N
--
Compound: N#CCCN(CCO)CCO
Assigned category: N
--
Compound: O=c1cc(-c2ccccc2)oc2cc(O)cc(O)c12
Assigned category: N
--
Compound: CO/N=C(/C(=O)N[C@@H]1C(=O)N2C(C(=O)O)=C(COC(N)=O)CS[C@H]12)c1ccco1
Assigned category: N
--
Compound: Cc1ccccc1S
Assigned category: N

Hi, sorry to bother you, what did the test record for CN1CC(=O)N2[C@H](c3ccc4c(c3)OCO4)c3[nH]c4ccccc4c3C[C@@H]2C1=O ?
N

What did the test return for CC(C)C[C@H](NC(=O)[C@H](CCc1ccccc1)NC(=O)CN1CCOCC1)C(=O)N[C@@H](Cc1ccccc1)C(=O)N[C@@H](CC(C)C)C(=O)[C@@]1(C)CO1 ?
Y

I would be grateful if you could indicate the recorded call for Cc1ccc(CO)cc1 .
N

Write down the call the test reported for this compound. Item: CC(C)Nc1cccnc1N1CCN(C(=O)c2cc3cc(NS(C)(=O)=O)ccc3[nH]2)CC1
N

Can you look up the reported call for O=C(CCCN1CC=C(n2c(=O)[nH]c3ccccc32)CC1)c1ccc(F)cc1 for me?
N

Answer briefly: the call reported for CCCCCCCCOc1ccc(C(=O)O)cc1 in this assay.
N

For this compound, state the assay outcome: CCOc1ccc(Cc2nccc3cc(OCC)c(OCC)cc23)cc1OCC
N
